system: UACC-62 melanoma; experiment: NCI tumour cell line growth inhibition, 48 h
Exercise: for every item that follows, state its recorded TGI.

Here are 3 compounds together with their reported answers.
Endpoint output: TGI of `O=C(N/N=C\C=C\c1ccc([N+](=O)[O-])o1)C(=O)N/N=C\C=C\c1ccc([N+](=O)[O-])o1` . Value?
> 100 µM

What about `COc1cc(OC)c(C(=O)/C=C/c2cccc(C(F)(F)F)c2)c(OC)c1` ?
2.5 µM

What about CCCC(CCC)NCC(O)c1cc(-c2ccc(C(F)(F)F)cc2)nc(C(F)(F)F)c1 (stereo unspecified) ?
3.25 µM

Would you be so kind as to report TGI for each listed record?
1. COc1cc(OC)c2c(C)cc(=O)oc2c1
2. CNC(=S)/N=C(\N)N(C)C
3. COC(=O)C12CC3CC(CC(C(=O)O)(C3)C1)C2
4. CCOC(=O)C1CCN(S(=O)(=O)/N=C2/NC(=O)NC2=C(Cl)Cl)CC1
5. O=C(Nc1n[nH]c2cc(-c3ccccc3)ccc12)C1CC1
6. COc1ccc2c3c([nH]c2c1[N+](=O)[O-])C(C)N(C)CC3 (stereo unspecified)
7. CC(=O)Nc1ccc(/C=C/c2ccc(NC(=O)Nc3ccc(/C=C/c4ccc(NC(C)=O)cc4S(=O)(=O)O)c(S(=O)(=O)O)c3)cc2S(=O)(=O)O)c(S(=O)(=O)O)c1
8. CCOC(C)O[C@H]1C(=O)OCC1(C)C (stereo partly specified)

1. > 100 µM
2. > 100 µM
3. > 100 µM
4. 3.27 µM
5. > 25 µM
6. > 100 µM
7. > 100 µM
8. > 100 µM

###

tested on: NCI-H522 lung; test: NCI tumour cell line growth inhibition, 48 h; in the data active = GI50 below about 0.43 µM; inactive = the rest
Parameter call: string, one of TRUE = active, FALSE = inactive

// outcome(item) with item = `COCC[C@H]1CCC/C=C/[C@@H]2C[C@H](O)C[C@H]2[C@H](O)/C=C/C(=O)O1`
TRUE

What about `COc1cc(OC)c(C(=O)/C=C/c2cccc(C(F)(F)F)c2)c(OC)c1` ?
FALSE

What about `C=C1C(=O)O[C@H]2[C@H]1CC/C(COC(=O)NCCCCNC(=O)OC/C1=C/CC[C@@]3(C)O[C@H]3[C@H]3OC(=O)C(=C)[C@@H]3CC1)=C\CC[C@@]1(C)O[C@@H]21` ?
TRUE

Others:
// outcome(item) with item = `C/C(=N\Nc1ccc(Cl)cn1)c1ccc2ccccc2n1`
FALSE

What about `Cc1ccc(NC(=O)c2cccc(C(C)(C)C#N)c2)cc1Nc1ccc2ncn(C)c(=O)c2c1` ?
FALSE

What about `CC1(C)C(=O)/C(=C\c2cccnc2)C[C@]2(C)[C@H]3CC[C@@H]4[C@H]5[C@H](C(=O)/C=C/c6cccnc6)CC[C@]5(C(=O)O)CC[C@@]4(C)[C@]3(C)CC[C@@H]12` ?
FALSE

What about `Cc1cc2ncnn2cc1Nc1ncc2c(n1)n(C1CCOCC1)c(=O)n2C` ?
FALSE

What about `COC(=O)Nc1nc2ccc(C3(c4ccc(F)cc4)OCCO3)cc2[nH]1` ?
TRUE

What about `CC(C)c1ccc(-c2cc(-c3cn[nH]c3-c3ccccn3)ccn2)cc1` ?
FALSE

What about `NS(=O)(=O)c1ccc(-c2ccc3c(NC(=O)C4CC4)n[nH]c3c2)cc1` ?
FALSE

What about `COc1ccc(C[N+](C)(C)N)cc1OC` ?
FALSE
